Measured polymerase ribozyme fitness (log ratio), listed per entry.
B1: TPR 5TU (parent)
chain: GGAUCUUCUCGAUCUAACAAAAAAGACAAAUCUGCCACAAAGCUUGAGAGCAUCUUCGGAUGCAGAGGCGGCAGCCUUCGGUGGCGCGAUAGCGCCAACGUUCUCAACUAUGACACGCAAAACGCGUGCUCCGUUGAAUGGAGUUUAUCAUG

Variants of: B1
Experiment: polymerase ribozyme fitness, log enrichment relative to wild type (log ratio); higher = more active; in vitro selection for triplet polymerase activity
This sample holds only a part of the variants without activity.
Respond numerically, and do not add a unit to the figure.

INSERT INTO results (variant_identifier, value) VALUES
  ('U134C U144G', 0.895);

[in] Supply recorded polymerase ribozyme fitness (log ratio) for A20C G48U G59A A119U U135A U146C here.
[out] -2.07

[in] Supply recorded polymerase ribozyme fitness (log ratio) for C118U A142G U148C here.
[out] -2.86

[in] Supply recorded polymerase ribozyme fitness (log ratio) for G83U A110U here.
[out] -4.17

[in] Supply recorded polymerase ribozyme fitness (log ratio) for C27U A41C C95U C125U here.
[out] -2.83

[in] Supply recorded polymerase ribozyme fitness (log ratio) for A12C A52C C87U A89C here.
[out] -3.43

[in] Supply recorded polymerase ribozyme fitness (log ratio) for A52U G84A here.
[out] -2.18

[in] Supply recorded polymerase ribozyme fitness (log ratio) for U104C G124U C125A G143U here.
[out] -3.85
